Source of measurements: paper PMC9607644

System: MCF-7 cells
Test: MTT cytotoxicity assay, MCF-7
Type: cell-based, human
Conditions: IC50 NHDF-Neo / IC50 MCF-7, 72 h incubation
property.label: Selectivity Index (SI) MCF-7
Quick one: just the number, no unit, thanks!

Give Selectivity Index (SI) MCF-7 for CC(=O)O[C@@H]1O[C@H](C(=O)NCc2cn(CCOc3cccc4cccnc34)nn2)[C@@H](OC(C)=O)[C@H](OC(C)=O)[C@H]1OC(C)=O [Compound C-1]
0.96

For the compound OC[C@H]1O[C@@H](n2cc(COc3cccc4cccnc34)nn2)[C@H](O)[C@@H](O)[C@@H]1O [Compound E-2, reference compound] , give its reported Selectivity Index (SI) MCF-7.
1.26

Quote Selectivity Index (SI) MCF-7 reported for CC(=O)OC1O[C@H](Cn2cc(COc3cccc4cccnc34)nn2)[C@H](OC(C)=O)[C@H](OC(C)=O)[C@H]1OC(C)=O (some centres unmarked) [Compound B-1] please.
2.22

Annotate the compound CC(=O)O[C@@H]1O[C@H](C(=O)NCc2cn(CCCOc3cccc4cccnc34)nn2)[C@@H](OC(C)=O)[C@H](OC(C)=O)[C@H]1OC(C)=O [Compound C-2] with its measured Selectivity Index (SI) MCF-7.
2.03

Entry CC(=O)OC1O[C@H](Cn2cc(COc3cccc4cccnc34)nn2)[C@@H](OC(C)=O)[C@H](OC(C)=O)[C@H]1OC(C)=O (some centres unmarked) [Compound A-1] needs its Selectivity Index (SI) MCF-7 filled in; supply it.
2.46

* * *

Test system: MCF-7 cells
Test: MTT cytotoxicity assay, MCF-7
Format: cell-based, human
Conditions: IC50 NHDF-Neo / IC50 MCF-7, 72 h incubation
Exercise: state measured Selectivity Index (SI) MCF-7 for each of the compounds provided.
Just the number.

Print MCF-7 cells Selectivity Index (SI) MCF-7 for CC(=O)O[C@@H]1[C@@H](OC(C)=O)[C@@H](O[C@H]2O[C@H](Cn3cc(COc4cccc5cccnc45)nn3)[C@@H](OC(C)=O)[C@H](OC(C)=O)[C@H]2OC(C)=O)O[C@H](Cn2cc(COc3cccc4cccnc34)nn2)[C@H]1OC(C)=O [Compound D-1] .
1.12

Using MCF-7 cells as the test system, report measured Selectivity Index (SI) MCF-7 of OC1O[C@H](Cn2cc(COc3cccc4cccnc34)nn2)[C@@H](O)[C@H](O)[C@H]1O (some centres unmarked) [Compound A-2] .
5.78

Write down measured Selectivity Index (SI) MCF-7 (MCF-7 cells) for this compound. O[C@@H]1[C@@H](O)[C@@H](O[C@H]2O[C@H](Cn3cc(COc4cccc5cccnc45)nn3)[C@@H](O)[C@H](O)[C@H]2O)O[C@H](Cn2cc(COc3cccc4cccnc34)nn2)[C@H]1O [Compound D-2]
2.08

GET Selectivity Index (SI) MCF-7 where system = MCF-7 cells and item = CC(=O)OC[C@H]1O[C@@H](n2cc(COc3cccc4cccnc34)nn2)[C@H](OC(C)=O)[C@@H](OC(C)=O)[C@@H]1OC(C)=O [Compound E-1, reference compound]
0.96

Give Selectivity Index (SI) MCF-7 only, for OC1O[C@H](Cn2cc(COc3cccc4cccnc34)nn2)[C@H](O)[C@H](O)[C@H]1O (some centres unmarked) [Compound B-2] , using MCF-7 cells data.
1.74
